- target-desc: UniProt P35968
- Sequence (P35968 whole entry): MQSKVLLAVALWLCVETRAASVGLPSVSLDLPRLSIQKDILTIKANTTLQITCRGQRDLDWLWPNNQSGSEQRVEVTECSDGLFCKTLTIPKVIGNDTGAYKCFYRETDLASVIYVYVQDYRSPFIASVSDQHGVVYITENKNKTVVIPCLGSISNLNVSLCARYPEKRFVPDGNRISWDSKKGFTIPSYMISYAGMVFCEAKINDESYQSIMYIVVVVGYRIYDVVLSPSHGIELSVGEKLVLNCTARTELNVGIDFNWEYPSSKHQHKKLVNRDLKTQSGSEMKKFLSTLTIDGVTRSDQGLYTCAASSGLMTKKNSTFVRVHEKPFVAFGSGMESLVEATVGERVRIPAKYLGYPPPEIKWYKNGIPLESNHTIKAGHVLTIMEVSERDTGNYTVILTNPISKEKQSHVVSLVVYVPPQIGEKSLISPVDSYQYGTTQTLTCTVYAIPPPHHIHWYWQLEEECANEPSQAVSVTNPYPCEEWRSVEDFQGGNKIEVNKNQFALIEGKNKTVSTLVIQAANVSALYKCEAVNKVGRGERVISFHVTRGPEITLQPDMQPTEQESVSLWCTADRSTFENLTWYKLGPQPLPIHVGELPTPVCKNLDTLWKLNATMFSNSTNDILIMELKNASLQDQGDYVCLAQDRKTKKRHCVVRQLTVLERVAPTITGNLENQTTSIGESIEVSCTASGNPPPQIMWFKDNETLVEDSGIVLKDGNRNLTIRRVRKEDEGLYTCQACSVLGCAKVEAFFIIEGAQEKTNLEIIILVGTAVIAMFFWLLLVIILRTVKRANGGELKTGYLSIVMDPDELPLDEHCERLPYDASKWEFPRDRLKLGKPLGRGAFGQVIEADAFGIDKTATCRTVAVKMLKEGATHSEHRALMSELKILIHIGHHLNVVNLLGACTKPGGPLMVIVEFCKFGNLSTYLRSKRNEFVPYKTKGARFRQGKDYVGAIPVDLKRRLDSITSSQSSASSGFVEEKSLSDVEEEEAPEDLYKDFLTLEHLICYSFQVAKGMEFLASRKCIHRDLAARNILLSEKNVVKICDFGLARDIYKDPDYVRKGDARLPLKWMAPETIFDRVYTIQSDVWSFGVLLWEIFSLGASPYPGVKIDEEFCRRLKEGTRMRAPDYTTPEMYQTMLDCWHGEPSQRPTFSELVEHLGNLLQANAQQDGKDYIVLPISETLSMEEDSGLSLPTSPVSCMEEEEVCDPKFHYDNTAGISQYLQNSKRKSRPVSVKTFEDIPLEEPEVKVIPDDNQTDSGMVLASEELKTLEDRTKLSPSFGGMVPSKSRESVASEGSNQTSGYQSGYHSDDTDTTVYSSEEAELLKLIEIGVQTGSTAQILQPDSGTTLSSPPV
- assay-summary: Inhibition of KDR (unknown origin)
quantity-name: IC50

Indicate its recorded IC50; the compound in question is Cc1cc(C(=O)NC(C)(C)C)cc(C#Cc2ccc3c4c(oc3c2)C(C)(C)c2cc(NS(C)(=O)=O)ccc2C4=O)n1
> 1 µM

Indicate its recorded IC50; the compound in question is CC1(C)c2cc(NS(C)(=O)=O)ccc2C(=O)c2c1oc1cc(C#Cc3cc(C(=O)NC4CC4)ccn3)ccc21
> 1 µM

Indicate its recorded IC50; the compound in question is CC1(C)NC(=O)N(CCOc2ccc3c(c2)C(C)(C)c2oc4cc(C#Cc5cc(OCC6CC6)ccn5)ccc4c2C3=O)C1=O
> 1 µM
